The reported numbers originate from ChEMBL document CHEMBL1909046.

- measuredOn: Adenosine receptor A2a (Homo sapiens)
- Sequence (P29274 whole entry): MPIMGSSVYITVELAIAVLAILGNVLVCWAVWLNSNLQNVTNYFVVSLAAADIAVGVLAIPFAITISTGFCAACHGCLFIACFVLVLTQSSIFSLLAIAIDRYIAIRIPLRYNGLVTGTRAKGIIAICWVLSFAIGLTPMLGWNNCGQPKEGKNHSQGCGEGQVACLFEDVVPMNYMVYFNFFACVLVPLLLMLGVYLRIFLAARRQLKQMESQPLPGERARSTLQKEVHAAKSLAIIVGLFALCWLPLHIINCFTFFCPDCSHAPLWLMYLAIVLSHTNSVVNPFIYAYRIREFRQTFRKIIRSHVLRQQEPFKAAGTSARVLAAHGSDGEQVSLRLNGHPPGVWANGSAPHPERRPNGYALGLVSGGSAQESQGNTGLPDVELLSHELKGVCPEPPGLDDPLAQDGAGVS
- assayName: DRUGMATRIX: Adenosine A2A radioligand binding (ligand: […])
- Type: cell membranes, HEK293, Membrane
- testContext: hek293; Not Active = under 50% inhibition at 10 µM
Where a SMILES comes first, the peptide text is derived from it. Bridges are numbered along the chain shown (N, C = ends). [ ]: non-standard residue; d: D form. The star is where a group is joined. Threoninol(2S,3R) = C[C@@H](O)[C@H](CO)N*
measuredProperty: IC50

Some entries whose results are on file:
* C[C@@H](O)[C@H](CO)NC(=O)[C@@H]1CSSC[C@H](NC(=O)[C@H](N)Cc2ccccc2)C(=O)N[C@@H](Cc2ccccc2)C(=O)N[C@H](Cc2c[nH]c3ccccc23)C(=O)N[C@@H](CCCCN)C(=O)N[C@@H]([C@@H](C)O)C(=O)N1 (H-[dF]CF[dW]KTC-{Threoninol(2S,3R)}; disulfide 2-7) | Not Active
* CC1(C)O[C@@H]2C[C@H]3[C@@H]4C[C@H](F)C5=CC(=O)C=C[C@]5(C)[C@@]4(F)[C@@H](O)C[C@]3(C)[C@]2(C(=O)CO)O1 [FLUOCINOLONE ACETONIDE] | Not Active
* CCCN(CCC)C(=O)C(CCC(=O)O)NC(=O)c1ccccc1 (stereo unspecified) [PROGLUMIDE] | Not Active
* Nc1c(CC(=O)O)cccc1C(=O)c1ccc(Br)cc1 | Not Active
* CC(=O)OCC(=O)[C@@]1(O)CC[C@H]2[C@@H]3CCC4=CC(=O)CC[C@]4(C)[C@H]3C(=O)C[C@@]21C [CORTISONE ACETATE] | Not Active

[Q] Param item = Cc1ncc([N+](=O)[O-])n1CCO ; retrieve measured IC50.
[A] Not Active

----------
The following compounds are listed with their measured IC50 values.
- measuredOn: Muscarinic acetylcholine receptor M5 (Homo sapiens)
- Sequence (P08912 whole entry): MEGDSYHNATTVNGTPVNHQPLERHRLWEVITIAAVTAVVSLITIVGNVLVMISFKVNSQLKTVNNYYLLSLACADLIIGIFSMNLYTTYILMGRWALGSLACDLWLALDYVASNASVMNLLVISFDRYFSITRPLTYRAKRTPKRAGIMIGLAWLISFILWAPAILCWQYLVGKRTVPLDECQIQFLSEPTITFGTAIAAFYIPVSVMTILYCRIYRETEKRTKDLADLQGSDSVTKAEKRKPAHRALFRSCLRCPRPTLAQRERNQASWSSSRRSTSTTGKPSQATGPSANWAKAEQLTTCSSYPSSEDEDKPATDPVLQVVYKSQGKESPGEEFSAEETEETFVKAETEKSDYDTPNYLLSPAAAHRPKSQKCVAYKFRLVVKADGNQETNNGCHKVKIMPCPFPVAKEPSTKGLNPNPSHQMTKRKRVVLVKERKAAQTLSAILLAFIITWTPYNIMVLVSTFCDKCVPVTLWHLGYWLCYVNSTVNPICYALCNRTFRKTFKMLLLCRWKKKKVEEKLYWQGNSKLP
- Format: cell membranes, CHO-K1, Membrane
- testContext: read-out: IC50

- CN(C)c1ccc(C(=C2C=CC(=[N+](C)C)C=C2)c2ccc(N(C)C)cc2)cc1.[Cl-]: 535 nM

Field: next compound
[Q] Param item = CN1CCC(=C2c3ccccc3C=Cc3ccccc32)CC1 ; retrieve measured IC50.
[A] 3.83 nM

----------
- assayName: DRUGMATRIX: Glutamate, NMDA, Phencyclidine radioligand binding (ligand: [3H] TCP)
- Format: cell membranes, Rattus norvegicus, Wistar, Cerebral cortex, Membrane
- testContext: Not Active = under 50% inhibition at 10 µM; read-out: IC50
measuredProperty: pIC50
Lab note — pIC50 values are minus log10 of concentrations in M.

[Q] Param item = COc1ccc2c(c1)[C@]13CCCC[C@@H]1[C@H](C2)N(C)CC3 [DEXTROMETHORPHAN] ; retrieve measured pIC50.
[A] 5.62

----------
- measuredOn: Cytochrome P450 2D6 (Homo sapiens, UniProt P10635)
- Sequence (P10635 whole entry): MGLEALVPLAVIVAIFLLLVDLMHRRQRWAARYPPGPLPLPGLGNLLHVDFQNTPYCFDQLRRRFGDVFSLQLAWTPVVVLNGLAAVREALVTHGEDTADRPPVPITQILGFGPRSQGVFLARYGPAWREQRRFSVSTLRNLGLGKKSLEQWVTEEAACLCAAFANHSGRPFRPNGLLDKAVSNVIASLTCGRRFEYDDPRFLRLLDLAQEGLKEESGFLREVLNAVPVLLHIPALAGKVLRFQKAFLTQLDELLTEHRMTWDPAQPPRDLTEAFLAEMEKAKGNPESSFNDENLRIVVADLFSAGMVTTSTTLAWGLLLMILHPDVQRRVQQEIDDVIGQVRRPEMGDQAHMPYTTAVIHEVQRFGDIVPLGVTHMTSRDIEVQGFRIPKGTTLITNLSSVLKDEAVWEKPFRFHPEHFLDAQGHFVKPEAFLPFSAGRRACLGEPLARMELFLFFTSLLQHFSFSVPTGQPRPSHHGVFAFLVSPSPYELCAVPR
- testContext: bti-tn-5b1-4
Where a SMILES comes first, the peptide text is derived from it. Bridges are numbered along the chain shown (N, C = ends). [ ]: non-standard residue; d: D form. The star is where a group is joined. Threoninol(2S,3R) = C[C@@H](O)[C@H](CO)N*
measuredProperty: IC50

Some entries whose results are on file:
• CC(C)(C(=O)c1cccnc1)c1cccnc1 [METYRAPONE] = Not Active
• C[C@@H](O)[C@H](CO)NC(=O)[C@@H]1CSSC[C@H](NC(=O)[C@H](N)Cc2ccccc2)C(=O)N[C@@H](Cc2ccccc2)C(=O)N[C@H](Cc2c[nH]c3ccccc23)C(=O)N[C@@H](CCCCN)C(=O)N[C@@H]([C@@H](C)O)C(=O)N1 (H-[dF]CF[dW]KTC-{Threoninol(2S,3R)}; disulfide 2-7) = Not Active
• O=C(c1ccc(OCCN2CCCCC2)cc1)c1c(-c2ccc(O)cc2)sc2cc(O)ccc12 [RALOXIFENE] = Not Active
• CNC(=C[N+](=O)[O-])NCCSCc1ccc(CN(C)C)o1 [RANITIDINE] = Not Active
• [H]/N=C(/N)N[C@H]1[C@H](O)[C@@H](O)[C@H](O[C@@H]2O[C@@H](C)[C@](O)(C=O)[C@H]2O[C@@H]2O[C@@H](CO)[C@H](O)[C@@H](O)[C@@H]2NC)[C@@H](N/C(N)=N\[H])[C@@H]1O [STREPTOMYCIN] = Not Active
• Cc1onc(-c2ccccc2)c1-c1ccc(S(N)(=O)=O)cc1 [VALDECOXIB] = Not Active

Field: next molecule
[Q] Param item = Cc1ncc([N+](=O)[O-])n1CCO [METRONIDAZOLE] ; retrieve measured IC50.
[A] Not Active

----------
- measuredOn: Sodium-dependent dopamine transporter (Homo sapiens, UniProt Q01959)
- Sequence (Q01959 whole entry): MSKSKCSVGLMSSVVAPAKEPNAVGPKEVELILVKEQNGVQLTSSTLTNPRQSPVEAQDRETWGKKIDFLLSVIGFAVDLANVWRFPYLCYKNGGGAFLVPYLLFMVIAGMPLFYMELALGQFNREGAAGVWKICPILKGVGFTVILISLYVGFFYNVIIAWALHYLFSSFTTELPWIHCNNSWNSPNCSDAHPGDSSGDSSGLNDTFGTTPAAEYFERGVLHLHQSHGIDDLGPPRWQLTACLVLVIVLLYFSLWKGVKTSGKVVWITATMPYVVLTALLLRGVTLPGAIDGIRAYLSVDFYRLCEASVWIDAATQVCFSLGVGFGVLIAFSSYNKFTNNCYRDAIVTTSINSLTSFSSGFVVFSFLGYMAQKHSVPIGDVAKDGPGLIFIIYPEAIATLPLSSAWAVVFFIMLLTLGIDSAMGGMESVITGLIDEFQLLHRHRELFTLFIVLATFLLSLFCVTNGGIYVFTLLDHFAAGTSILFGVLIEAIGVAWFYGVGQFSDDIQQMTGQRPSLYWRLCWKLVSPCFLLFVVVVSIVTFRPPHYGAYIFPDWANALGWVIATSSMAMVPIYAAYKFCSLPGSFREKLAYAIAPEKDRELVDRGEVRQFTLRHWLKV
- assayName: DRUGMATRIX: Dopamine Transporter radioligand binding (ligand: [125I] RTI-55)
- Format: cell membranes, CHO-K1, Membrane
- testContext: Not Active = under 50% inhibition at 10 µM; read-out: IC50
The following molecules are listed with their measured IC50 values.
Write down the numeric answer in µM and omit the unit.

[Q] Param item = CN(C)c1ccc(C(=C2C=CC(=[N+](C)C)C=C2)c2ccc(N(C)C)cc2)cc1.[Cl-] ; retrieve measured IC50.
[A] 4.07

[Q] Now the molecule CC(C)CC(N(C)C)C1(c2ccc(Cl)cc2)CCC1 (centres undefined)
[A] 0.632

[Q] Now the molecule C[C@]12CC[C@@H]3c4ccc(O)cc4CC[C@H]3[C@@H]1CC[C@@H]2O
[A] 14.9

[Q] Now the molecule CC(=O)N1CCN(c2ccc(OCC3COC(Cn4ccnc4)(c4ccc(Cl)cc4Cl)O3)cc2)CC1 (centres undefined)
[A] 23.5

----------
- measuredOn: Acetylcholinesterase (Homo sapiens, UniProt P22303)
- Sequence (P22303 whole entry): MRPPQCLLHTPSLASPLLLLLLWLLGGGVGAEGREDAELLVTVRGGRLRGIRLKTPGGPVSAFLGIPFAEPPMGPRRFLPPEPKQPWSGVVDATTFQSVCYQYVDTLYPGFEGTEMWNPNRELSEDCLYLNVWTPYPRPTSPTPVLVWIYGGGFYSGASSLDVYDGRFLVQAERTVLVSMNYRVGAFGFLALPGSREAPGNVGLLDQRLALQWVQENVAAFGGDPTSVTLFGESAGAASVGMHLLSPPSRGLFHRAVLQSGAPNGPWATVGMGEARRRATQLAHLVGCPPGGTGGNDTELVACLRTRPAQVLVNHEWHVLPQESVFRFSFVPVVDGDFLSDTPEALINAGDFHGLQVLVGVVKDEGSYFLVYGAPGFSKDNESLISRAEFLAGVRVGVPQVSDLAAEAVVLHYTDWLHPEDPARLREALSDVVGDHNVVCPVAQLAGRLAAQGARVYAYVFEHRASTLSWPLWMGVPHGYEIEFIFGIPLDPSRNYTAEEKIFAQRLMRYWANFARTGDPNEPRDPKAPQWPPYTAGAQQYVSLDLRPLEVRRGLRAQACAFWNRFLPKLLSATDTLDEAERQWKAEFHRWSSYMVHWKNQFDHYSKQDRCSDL
- assayName: DRUGMATRIX: Acetylcholinesterase enzyme inhibition (substrate: acetylthiocholine)
- Assay type: cell-based, HEK293
- testContext: hek293; Not Active = under 50% inhibition at 10 µM
measuredProperty: IC50

Some entries whose results are on file:
* C/C=C/C[C@@H](C)[C@@H](O)[C@H]1C(=O)N[C@@H](CC)C(=O)N(C)CC(=O)N(C)[C@@H](CC(C)C)C(=O)N[C@@H](C(C)C)C(=O)N(C)[C@@H](CC(C)C)C(=O)N[C@@H](C)C(=O)N[C@H](C)C(=O)N(C)[C@@H](CC(C)C)C(=O)N(C)[C@@H](CC(C)C)C(=O)N(C)[C@@H](C(C)C)C(=O)N1C | Not Active
* CC(=O)N1CCN(c2ccc(OCC3COC(Cn4ccnc4)(c4ccc(Cl)cc4Cl)O3)cc2)CC1 (stereo not given) | Not Active
* O=NN(CCCl)C(=O)NCCCl | Not Active
* N=C(Nc1ccccc1)Nc1ccccc1 | Not Active
* O=S(=O)([O-])CCS.[Na+] | Not Active
* COC(=O)C1=C(C)NC(C)=C(C(=O)OCC(C)C)C1c1ccccc1[N+](=O)[O-] (stereo not given) | Not Active
* Nc1c(CC(=O)O)cccc1C(=O)c1ccc(Br)cc1 | Not Active
* C[C@H]1O[C@@H](O[C@H]2[C@@H](O)C[C@H](O[C@H]3[C@@H](O)C[C@H](O[C@H]4CC[C@@]5(C)[C@H](CC[C@@H]6[C@@H]5CC[C@]5(C)[C@@H](C7=CC(=O)OC7)CC[C@]65O)C4)O[C@@H]3C)O[C@@H]2C)C[C@H](O)[C@@H]1O | Not Active
* C=CCN1CC[C@]23c4c5ccc(O)c4O[C@H]2C(=O)CC[C@@]3(O)[C@H]1C5 | Not Active
* N[C@H](CSC(=S)NCc1ccccc1)C(=O)O | Not Active

[Q] Param item = CC(C)NCC(O)COc1cccc2ccccc12 (stereo not given) ; retrieve measured IC50.
[A] Not Active

[Q] Now the compound C[C@H]1C[C@H]2[C@@H]3CCC4=CC(=O)C=C[C@]4(C)[C@@]3(Cl)[C@@H](O)C[C@]2(C)[C@@]1(O)C(=O)CO
[A] Not Active

[Q] Now the compound O=C(N[C@H](CO)[C@H](O)c1ccc([N+](=O)[O-])cc1)C(Cl)Cl
[A] Not Active

[Q] Now the compound Nc1ccn([C@@H]2CS[C@H](CO)O2)c(=O)n1
[A] Not Active

[Q] Now the compound CC1=C(C(=O)O)N2C(=O)[C@@H](NC(=O)[C@H](N)c3ccccc3)[C@H]2SC1 [CEPHALEXIN ANHYDROUS]
[A] Not Active

----------
- assayName: DRUGMATRIX: Calcium Channel Type L, Phenylalkylamine radioligand binding (ligand: [3H] (-)-Desmethoxyverapamil (D-888))
- Format: cell membranes, Rattus norvegicus, Wistar, Brain, Membrane
- testContext: Not Active = under 50% inhibition at 10 µM
measuredProperty: IC50

Some entries whose results are on file:
- Cc1ccccc1C(=O)N1CCC(Cc2ccccc2)CC1: Not Active
- CC[C@]1(O)C[C@@H]2CN(CCc3c([nH]c4ccccc34)[C@@](C(=O)OC)(c3cc4c(cc3OC)N(C)[C@H]3[C@@](O)(C(=O)OC)[C@H](OC(C)=O)[C@]5(CC)C=CCN6CC[C@]43[C@@H]65)C2)C1: Not Active
- CCC1=C[C@@H]2CN(C1)Cc1c([nH]c3ccccc13)[C@@](C(=O)OC)(c1cc3c(cc1OC)N(C)[C@H]1[C@@](O)(C(=O)OC)[C@H](OC(C)=O)[C@]4(CC)C=CCN5CC[C@]31[C@@H]54)C2: Not Active
- CC1=C(CC(=O)O)c2cc(F)ccc2/C1=C\c1ccc([S+](C)[O-])cc1 (stereo unspecified): Not Active
- C/C=C/C[C@@H](C)[C@@H](O)[C@H]1C(=O)N[C@@H](CC)C(=O)N(C)CC(=O)N(C)[C@@H](CC(C)C)C(=O)N[C@@H](C(C)C)C(=O)N(C)[C@@H](CC(C)C)C(=O)N[C@@H](C)C(=O)N[C@H](C)C(=O)N(C)[C@@H](CC(C)C)C(=O)N(C)[C@@H](CC(C)C)C(=O)N(C)[C@@H](C(C)C)C(=O)N1C: Not Active
- Nc1ccn([C@@H]2CS[C@H](CO)O2)c(=O)n1: Not Active

[Q] Param item = O=S(=O)([O-])CCS.[Na+] ; retrieve measured IC50.
[A] Not Active

[Q] Now the compound CC(=O)N[C@@H]1[C@H](Oc2c3cc4cc2Oc2ccc(cc2Cl)[C@@H](O[C@@H]2O[C@@H](CO)[C@@H](O)[C@H](O)[C@@H]2NC(C)=O)[C@@H]2NC(=O)[C@H](NC(=O)[C@@H]4NC(=O)[C@H]4NC(=O)[C@@H](Cc5ccc(c(Cl)c5)O3)NC(=O)[C@H](N)c3ccc(O)c(c3)Oc3cc(O)cc4c3)c3ccc(O)c(c3)-c3c(O[C@H]4O[C@H](CO)[C@@H](O)[C@@H](O)[C@@H]4O)cc(O)cc3[C@@H](C(=O)O)NC2=O)O[C@@H](CO)[C@@H](O)[C@@H]1O
[A] Not Active
